melting point reference

OCC1(O)CCN(Cc2ccc3c(c2)Nc2nccnc2S3)CC1
170 to 173 °C

Below: the item to evaluate.
Problem: Could you tell me which melting point is on file for `O=C(O)COc1ccc(C2CCN(Cc3ccc4c(c3)Nc3nccnc3S4)CC2)cc1` ?
Solution: 258 to 262 °C

----------
VALUE_TYPE: melting point

Problem: I would be grateful if you could share the reported melting point for O=C(O)C(F)C1CCN(Cc2ccc3c(c2)Nc2nccnc2S3)CC1 (centres unmarked) .
Solution: 163 °C (dec.)

Problem: Query `c1ccc(CNc2ccc(NCc3ccc4c(c3)Nc3nccnc3S4)cn2)cc1` next
Solution: 208 to 211 °C

Problem: Likewise for `Cc1ncn(Cc2ccc3c(c2)Nc2nccnc2S3)c1C(C)(C)O` ?
Solution: 199 to 202 °C

Problem: Note, next up: `N/C(=N\S(N)(=O)=O)C1CCN(Cc2ccc3c(c2)Nc2nccnc2S3)CC1`
Solution: 202 to 206 °C

Problem: Follow-up entry: `c1ccc2c(c1)CCN(Cc1ccc3c(c1)Nc1nccnc1S3)C2`
Solution: 188 to 191 °C

Problem: Now this one: `FC(F)(F)c1nccn1Cc1ccc2c(c1)Nc1nccnc1S2`
Solution: 231 to 233 °C

Problem: Now try Cl.OC1CN=C(Cc2ccc3c(c2)Nc2nccnc2S3)NC1 (centres unmarked) .
Solution: 156 to 163 °C

Problem: Then `O=C(O)Cc1ccc(OCC2CCN(Cc3ccc4c(c3)Nc3nccnc3S4)CC2)cc1` ?
Solution: 225 to 230 °C

Problem: Another compound to check: `O=C(O)C=C1CCN(Cc2ccc3c(c2)Nc2nccnc2S3)CC1`
Solution: 214 to 216 °C

Problem: And what about the compound `O=c1[nH]cnc2ncn(Cc3ccc4c(c3)Nc3nccnc3S4)c12` ?
Solution: > 275 °C

Problem: Can you handle `CN1c2ccc(C#CC(=O)O)cc2Nc2nccnc21` next?
Solution: > 275 °C

----------
VALUE_TYPE: melting point

These solved cases illustrate the format of a correct answer.
N#Cc1ccc2c(c1)Nc1nccnc1S2
263 to 264 °C
Cl.N=C(N)c1ccc2c(c1)Nc1nccnc1S2
> 280 °C

Problem: Can you look up the measured melting point of CN1c2ccc(C(O)c3nnc[nH]3)cc2Nc2nccnc21 (stereo not drawn) for me?
Solution: > 275 °C

Problem: Also check `N=C(N)N1CCN(Cc2ccc3c(c2)Nc2nccnc2S3)CC1`
Solution: 265 to 271 °C (dec.)

Problem: Then CN1c2ccc(C(O)c3nccs3)cc2Nc2nccnc21 (stereo not drawn) ?
Solution: 203 to 204 °C

Problem: Same thing, different compound: `N=C(NC1CCN(Cc2ccc3c(c2)Nc2nccnc2S3)CC1)C(=O)O`
Solution: 186 to 190 °C

Problem: What about this compound? `CS(=O)(=O)N1CCC(NCc2ccc3c(c2)Nc2nccnc2S3)CC1`
Solution: 219 to 221 °C

Problem: Field entry: `C1=NCCCN1Cc1ccc2c(c1)Nc1nccnc1S2.Cl`
Solution: 238 °C (dec.)

Problem: Now the same for `NC(=O)C1CCN(Cc2ccc3c(c2)Nc2nccnc2O3)CC1`
Solution: 287 to 288 °C

Problem: Check CC(C(=O)O)C1CCN(Cc2ccc3c(c2)Nc2nccnc2S3)CC1 (stereo not drawn) too.
Solution: 240 to 243 °C

Problem: Query CC12CCCC(C)(CN(Cc3ccc4c(c3)Nc3nccnc3S4)C1)C2CC(=O)O (stereo not drawn) next
Solution: 226 to 229 °C

Problem: Param item: `Cl.N=C(Cc1ccc2c(c1)Nc1nccnc1S2)NCCO`
Solution: 174 to 175 °C

----------
Known melting point of a selection of molecules

Below: 5 molecules and their reported melting point.
CN1c2ccc(CO)cc2Nc2nccnc21
215 to 218 °C
c1ccc2c(NCc3ccc4c(c3)Nc3nccnc3S4)nccc2c1
222 to 225 °C
c1cn(CCCc2ccc3c(c2)Nc2nccnc2S3)cn1
139 to 141 °C
CC(CC1C2CN(Cc3ccc4c(c3)Nc3nccnc3S4)CC1C(C)CC2C)C(=O)O (stereo not drawn)
110 to 115 °C
C/C(=C\C1C2(C)CCCC1(C)CN(Cc1ccc3c(c1)Nc1nccnc1S3)C2)C(=O)O (stereo not drawn)
249 to 251 °C

Please find the next molecule below.
Problem: Suppose we examine the molecule `CC1(CC(=O)O)CC2(CCN(Cc3ccc4c(c3)Nc3nccnc3S4)CC2)C1` ; what melting point value has been reported?
Solution: 149 to 151 °C

----------
Readings of melting point for the listed compounds

Worked examples follow.
Cc1ncn(Cc2ccc3c(c2)Nc2nccnc2S3)c1C(=O)O
235 °C (dec.)
CN(C)S(=O)(=O)NCC1C2CCCC1CN(Cc1ccc3c(c1)Nc1nccnc1S3)C2 (stereo not drawn)
215 to 219 °C
O=C(O)C1CCN(S(=O)(=O)NC2CCN(Cc3ccc4c(c3)Nc3nccnc3S4)CC2)CC1
54 to 55 °C
CCOC(=O)c1ncn(Cc2ccc3c(c2)Nc2nccnc2S3)c1C
222 to 224 °C

Problem: Look up melting point: `CN(C)C(=O)/N=C(\N)Cc1ccc2c(c1)Nc1nccnc1S2`
Solution: 158 to 161 °C

Problem: And then `O=C(O)C#CC1CCN(Cc2ccc3c(c2)Nc2nccnc2S3)CC1` , what is it?
Solution: 155 to 156 °C

Problem: Now this one: `Cl.N=C(N)NCc1ccc2c(c1)Nc1nccnc1S2`
Solution: 279 to 282 °C

Problem: Query COC(c1cccnc1)c1ccc2c(c1)Nc1nccnc1S2 (stereo not drawn) next
Solution: 156 to 188 °C

Problem: // repeat for `NS(=O)(=O)N1CCN(Cc2ccc3c(c2)Nc2nccnc2S3)CC1` and report
Solution: 215 to 217 °C (dec.)

Problem: Next entry: CN1C2CCC1CC(NC(=O)CC1CC3(CCN(Cc4ccc5c(c4)Nc4nccnc4S5)CC3)C1)C2 (stereo not drawn)
Solution: 181 to 184 °C

Problem: Subsequent entry: CCOC(=O)C(C)CCC1CCN(C(=N)Cc2ccc3c(c2)Nc2nccnc2S3)CC1.Cl (stereo not drawn)
Solution: 219 to 220 °C

Problem: Next record, please: `COc1ccc(NCc2ccc3c(c2)Nc2nccnc2S3)cn1`
Solution: 168 to 172 °C

Problem: Input `OCCSc1ccc(NCc2ccc3c(c2)Nc2nccnc2S3)cn1`
Solution: 138 to 142 °C

Problem: Also need `CN(CCCCCC(=O)O)Cc1ccc2c(c1)Nc1nccnc1S2` , thanks.
Solution: 191 to 193 °C

Problem: Okay, and `CCOC(=O)c1ccc2c(c1)Nc1nccnc1N2` ?
Solution: > 275 °C

Problem: # repeat for `CCOC(=O)CCCCCSc1ncnc2c1ncn2Cc1ccc2c(c1)Nc1nccnc1S2`
Solution: 78 to 79 °C

Problem: Could you do the same for `c1ccc(Cc2nccn2Cc2ccc3c(c2)Nc2nccnc2S3)nc1` , please?
Solution: 216 to 219 °C

Problem: Lookup `O=C(O)CC1=CCN(Cc2ccc3c(c2)Nc2nccnc2S3)CC1`
Solution: 124 to 128 °C

Problem: Let us now turn to `O=C(O)/C=C1\CCCN(Cc2ccc3c(c2)Nc2nccnc2S3)C1`
Solution: 200 to 203 °C

Problem: Same read-out for `COC(=O)c1ccc(NCc2ccc3c(c2)Nc2nccnc2S3)nc1` ?
Solution: 140 to 148 °C

Problem: Another compound: `CC(C)c1nccn1Cc1ccc2c(c1)Nc1nccnc1S2`
Solution: 241 to 242 °C

Problem: Try the compound `OCCCCC1CCN(Cc2ccc3c(c2)Nc2nccnc2S3)CC1`
Solution: 132 to 135 °C

Problem: What about O=C(O)C1CC2CCC(C1)N2Cc1ccc2c(c1)Nc1nccnc1S2 (stereo not drawn) ?
Solution: 158 °C (dec.)

Problem: Same again, this time with `CN(C=NC#N)Cc1ccc2c(c1)Nc1nccnc1S2`
Solution: 197 to 198 °C

Problem: Also need `CNS(=O)(=O)CCN(C)Cc1ccc2c(c1)Nc1nccnc1S2` , thanks.
Solution: 143 to 146 °C

----------
VALUE_TYPE: melting point

CS(=O)(=O)/N=C(\N)NCc1ccc2c(c1)Nc1nccnc1S2
244 to 245 °C
Cc1ncn(Cc2ccc3c(c2)Nc2nccnc2S3)c1CO
188 to 192 °C
COC(=O)CCCN1c2ccccc2Nc2nccnc21
189 to 190 °C
CC1CC(C)C2CN(Cc3ccc4c(c3)Nc3nccnc3S4)CC1C2CCCC(=O)O (centres unmarked)
98 to 105 °C
CCc1nccn1Cc1ccc2c(c1)Nc1nccnc1S2
230 to 231 °C

Problem: Entry under review: `Cc1c(C(C)(C)O)ncn1Cc1ccc2c(c1)Nc1nccnc1S2` . Reported melting point?
Solution: 264 to 266 °C

Problem: Similarly, O=C(O)CC1CC2(C1)C1CCCC2CN(Cc2ccc3c(c2)Nc2nccnc2S3)C1 (centres unmarked) ?
Solution: 199 to 201 °C

Problem: Please answer likewise for `c1cc(-c2cn(Cc3ccc4c(c3)Nc3nccnc3S4)cn2)ccn1`
Solution: 157 to 158 °C

Problem: # repeat for `N#Cc1ccc(-c2cn(Cc3ccc4c(c3)Nc3nccnc3S4)cn2)cc1`
Solution: 262 to 264 °C

Problem: Same again, this time with CCCCC#CC(O)c1ccc2c(c1)Nc1nccnc1S2 (centres unmarked)
Solution: 116 to 118 °C

Problem: # iterate: CC(CC(=O)O)C1CCN(Cc2ccc3c(c2)Nc2nccnc2S3)CC1 (centres unmarked)
Solution: 218 to 220 °C
